# inhibition at 0.1 µM per record follows
# target_entity: 5HT6-human recombinant receptor (Homo sapiens, UniProt P50406)
# Construct: purchased Receptor Biology; host or cells: HEK-293 cell membranes
# Sequence (P50406 whole entry): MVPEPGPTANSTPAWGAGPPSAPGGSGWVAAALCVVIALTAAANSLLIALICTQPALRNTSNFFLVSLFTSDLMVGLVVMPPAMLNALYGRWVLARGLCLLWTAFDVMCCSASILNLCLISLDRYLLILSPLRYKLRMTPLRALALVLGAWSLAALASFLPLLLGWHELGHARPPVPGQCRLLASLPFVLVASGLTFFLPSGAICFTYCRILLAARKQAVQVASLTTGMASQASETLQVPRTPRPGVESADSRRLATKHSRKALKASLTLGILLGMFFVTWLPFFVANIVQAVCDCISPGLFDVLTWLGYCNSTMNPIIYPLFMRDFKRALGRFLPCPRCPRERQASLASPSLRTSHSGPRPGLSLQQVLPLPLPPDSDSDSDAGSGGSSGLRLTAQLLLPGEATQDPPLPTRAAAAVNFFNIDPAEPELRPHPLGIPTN
# method_summary: Binding to serotonin receptor 5-HT6 ([3H]-LSD displacement)
# settings: 1 h, compound at 100 nM; radioligand [3H]-LSD 2.7 nM
Counter-ions that a name gives are not always drawn.
value_type: inhibition at 0.1 µM (%)

>>> reported_result("O=S(=O)(Nc1ccc2c(c1)CCNC2)c1cccc2ccccc12 [Example 1, hydrochloride]")
74.8
>>> reported_result("Cc1c(S(=O)(=O)Nc2ccc3c(c2)CCNC3)sc2ccc(Cl)cc12 [Example 4, hydrochloride]")
71.1
>>> reported_result("O=S(=O)(Nc1ccc2c(c1)CNCC2)c1ccc(F)c2ccccc12 [Example 80, hydrochloride]")
83.6
>>> reported_result("O=S(=O)(Nc1ccc2c(c1)CCNC2)c1csc2ccccc12 [Example 29, hydrochloride]")
89.6
>>> reported_result("Cc1c(S(=O)(=O)Nc2ccc3c(c2)CNCC3)sc2ccc(Cl)cc12 [Example 60, hydrochloride]")
65.1
>>> reported_result("CN1CCc2cc(NS(=O)(=O)c3cccc4ccccc34)ccc2C1 [Example 3, hydrochloride]")
18.2
>>> reported_result("O=S(=O)(Nc1ccc2c(c1)CCNC2)c1ccc(Cl)c2ccccc12 [Example 31, hydrochloride]")
85.5
>>> reported_result("Cc1c(S(=O)(=O)Nc2ccc3c(c2)CCN(C)C3)sc2ccc(Cl)cc12 [Example 5, hydrochloride]")
76.3
>>> reported_result("Cc1c(S(=O)(=O)Nc2ccc3c(c2)CCN(C(=O)OC(C)(C)C)C3)sc2ccc(Cl)cc12 [Example 14]")
-3
>>> reported_result("O=S(=O)(Nc1ccc2c(c1)CCNC2)c1ccc2ccccc2c1 [Example 8, hydrochloride]")
74.6
>>> reported_result("Cc1ccc(S(=O)(=O)Nc2ccc3c(c2)CCN(C)C3)c2ccccc12 [Example 7, hydrochloride]")
92.2

====

# inhibition at 0.01 µM per record follows
# target_entity: 5HT6-human recombinant receptor (Homo sapiens)
# Construct: purchased Receptor Biology; host or cells: HEK-293 cell membranes
# method_summary: Binding to serotonin receptor 5-HT6 ([3H]-LSD displacement)
# settings: 1 h, compound at 10 nM; radioligand [3H]-LSD 2.7 nM
Structures can show the parent of a compound that is named as a salt.
value_type: inhibition at 0.01 µM

>>> reported_result("CN(c1ccc2c(c1)CC[N+](C)(C)C2)S(=O)(=O)c1cccc2ccccc12 [Example 2]")
"17%"
>>> reported_result("Cc1ccc(S(=O)(=O)Nc2ccc3c(c2)CNCC3)c2ccccc12 [Example 55, hydrochloride]")
"82.3%"
>>> reported_result("O=S(=O)(Nc1ccc2c(c1)CCNC2)c1ccccc1-c1ccccc1 [Example 22, hydrochloride]")
"79.7%"
>>> reported_result("O=S(=O)(Nc1ccc2c(c1)CNCC2)c1cccc2nonc12 [Example 72, hydrochloride]")
"45.5%"
>>> reported_result("COc1ccc(C)cc1S(=O)(=O)Nc1ccc2c(c1)CCN(C(=O)OC(C)(C)C)C2 [Example 17]")
"-1.3%"
>>> reported_result("Cc1ccc(S(=O)(=O)Nc2ccc3c(c2)CN(C)CC3)c2ccccc12 [Example 56, hydrochloride]")
"86.8%"
>>> reported_result("Cc1ccc(S(=O)(=O)Nc2ccc3c(c2)CCN(C)C3)c2ccccc12 [Example 7, hydrochloride]")
"80.3%"
>>> reported_result("CN1CCc2cc(NS(=O)(=O)c3ccc4ccccc4c3)ccc2C1 [Example 9, hydrochloride]")
"60.1%"
>>> reported_result("Cc1ccc(S(=O)(=O)Nc2ccc3c(c2)CCN(C(=O)OC(C)(C)C)C3)c2ccccc12 [Example 15]")
"-5%"
>>> reported_result("Cc1c(S(=O)(=O)Nc2ccc3c(c2)CCN(C(=O)OC(C)(C)C)C3)sc2ccc(Cl)cc12 [Example 14]")
"-7.3%"
>>> reported_result("CC(C)(C)OC(=O)N1CCc2cc(NS(=O)(=O)c3cccnc3)ccc2C1 [Example 18]")
"-0.8%"
>>> reported_result("Cc1c(S(=O)(=O)Nc2ccc3c(c2)CNCC3)sc2ccc(F)cc12 [Example 64, hydrochloride]")
"41.9%"
>>> reported_result("O=S(=O)(Nc1ccc2c(c1)CNCC2)c1ccc(F)c2ccccc12 [Example 80, hydrochloride]")
"70%"
>>> reported_result("Cc1c(S(=O)(=O)Nc2ccc3c(c2)CCN(C)C3)sc2ccc(Cl)cc12 [Example 5, hydrochloride]")
"25.9%"
>>> reported_result("O=S(=O)(Nc1ccc2c(c1)CNCC2)c1ccccc1-c1ccccc1 [Example 62, hydrochloride]")
"89%"
>>> reported_result("CN1CCc2cc(NS(=O)(=O)c3cccc4ccccc34)ccc2C1 [Example 3, hydrochloride]")
"3.9%"
